- subject.of.test: somatostatin receptor type 2 (SSTR2) (UniProt P30874 1-369)
- Sequence (P30874 whole entry): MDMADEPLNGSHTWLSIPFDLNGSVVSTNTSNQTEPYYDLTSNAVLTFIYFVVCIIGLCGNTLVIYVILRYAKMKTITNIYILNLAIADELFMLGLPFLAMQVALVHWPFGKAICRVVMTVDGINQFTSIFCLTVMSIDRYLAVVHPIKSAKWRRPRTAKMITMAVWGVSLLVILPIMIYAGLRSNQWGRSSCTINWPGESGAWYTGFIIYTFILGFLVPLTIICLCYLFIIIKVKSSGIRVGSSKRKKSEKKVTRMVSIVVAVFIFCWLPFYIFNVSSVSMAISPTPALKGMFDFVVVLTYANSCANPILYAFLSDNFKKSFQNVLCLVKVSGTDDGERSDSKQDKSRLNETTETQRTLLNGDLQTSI
- experiment.description: cell-based or functional assay
Positions of bridges follow the written chain, without caps; N, C: chain ends. Non-standard residues stand in square brackets, D forms with d. *: point of attachment. dPhe(4-CONH2) = NC(=O)c1ccc(C[C@@H](N)C(=O)O)cc1; Phe(4-Cl) = N[C@@H](Cc1ccc(Cl)cc1)C(=O)O; Tle = CC(C)(C)[C@H](N)C(=O)O; Nicotinoyl = O=C(c1cccnc1)*
// values below are reported IC50 (PathHunter β-Arrestin, antagonist mode)
I only need the number, in µM, no unit after it.

| binder | readout.value |
| --- | --- |
| H-[Phe(4-Cl)][dC]Y[dPhe(4-CONH2)]K[Tle]C[dY]-NH2 (disulfide 2-7; SMILES CC(C)(C)[C@@H]1NC(=O)[C@H](CCCCN)NC(=O)[C@@H](Cc2ccc(C(N)=O)cc2)NC(=O)[C@H](Cc2ccc(O)cc2)NC(=O)[C@H](NC(=O)[C@@H](N)Cc2ccc(Cl)cc2)CSSC[C@@H](C(=O)N[C@H](Cc2ccc(O)cc2)C(N)=O)NC1=O) [Compound 34: H-Cpa-cyclo[DCys-Tyr-D-4-(carbamoyl)Phe-Lys-tBu-Gly-Cys]-DTyr-NH2] | 0.0434 |
| H-[Phe(4-Cl)][dC]Y[dAph(Ser)]KTC[dY]-NH2 (disulfide 2-7) [Compound 16: H-Cpa-cyclo[DCys-Tyr-D-4-(Ser)Aph-Lys-Thr-Cys]-DTyr-NH2] | 0.234 |

Now consider a different binder.
Field request: IC50 (PathHunter β-Arrestin, antagonist mode) | item: H-[Phe(4-Cl)][dC]Y[dK](Nicotinoyl)K(Me)TC[dY]-NH2 (disulfide 2-7; SMILES CNCCCC[C@@H]1NC(=O)[C@@H](CCCCNC(=O)c2cccnc2)NC(=O)[C@H](Cc2ccc(O)cc2)NC(=O)[C@H](NC(=O)[C@@H](N)Cc2ccc(Cl)cc2)CSSC[C@@H](C(=O)N[C@H](Cc2ccc(O)cc2)C(N)=O)NC(=O)[C@H]([C@@H](C)O)NC1=O) [Compound 30: H-Cpa-cyclo[D-Cys-Tyr-D-Lys(Nε-nicotinoyl)-Lys(Nε-Me)-Thr-Cys]-D-Tyr-NH2]
0.177
